- Test system: Pseudomonas aeruginosa
- experiment-summary: Antimicrobial activity against Pseudomonas aeruginosa ATCC 27853 after 1 day by agar dilution method
- Assay type: functional
- conditions: ATCC 27853, 24 h
Record form. Attribute: MIC. Fill in for each entry.
# number only, unit µg/mL dropped from output

Dear colleague, I am looking for the recorded MIC of the following compound: "Cc1n(C)c(Br)c(Br)[n+]1CC(=O)c1ccccc1.[Br-]"
150

Dear colleague, I am looking for the recorded MIC of the following compound: "Cn1c[n+](CC(=O)c2ccccc2)cc1[N+](=O)[O-].[Br-]"
12.5

Dear colleague, I am looking for the recorded MIC of the following compound: "Cn1c(Br)c(Br)[n+](CC(=O)c2ccccc2)c1-c1ccccc1.[Br-]"
50

Dear colleague, I am looking for the recorded MIC of the following compound: "Cc1n(C)c(I)c(I)[n+]1CC(=O)c1ccccc1.[Br-]"
12.5

Dear colleague, I am looking for the recorded MIC of the following compound: "CCOC(=O)C[n+]1c(Br)c(Br)n(C)c1C.[Br-]"
250

Dear colleague, I am looking for the recorded MIC of the following compound: "CCOC(=O)C[n+]1c(I)c(I)n(C)c1C.[Br-]"
25

---

Record form. Attribute: zone of inhibition at 200 µg/disc. Fill in for each entry.
- System: Pseudomonas aeruginosa
- experiment-summary: Antimicrobial activity against Pseudomonas aeruginosa ATCC 27853 at 200 ug after overnight incubation by disk-diffusion method
- Type: functional
- conditions: read-out: DIZ
Number first, unit second.

State its zone of inhibition at 200 µg/disc on Pseudomonas aeruginosa: "Cc1n(C)c([N+](=O)[O-])c[n+]1CC(=O)c1ccccc1.[Br-]"
10 mm

State its zone of inhibition at 200 µg/disc on Pseudomonas aeruginosa: "CCOC(=O)C[n+]1c(I)c(I)n(C)c1C.[Br-]"
9 mm

State its zone of inhibition at 200 µg/disc on Pseudomonas aeruginosa: "CCOC(=O)C[n+]1c(Br)c(Br)n(C)c1-c1ccccc1.[Br-]"
7 mm

State its zone of inhibition at 200 µg/disc on Pseudomonas aeruginosa: "Cn1c(Br)c(Br)[n+](CC(=O)c2ccccc2)c1CO.[Br-]"
9 mm

State its zone of inhibition at 200 µg/disc on Pseudomonas aeruginosa: "CCOC(=O)C[n+]1c(Br)c(Br)n(C)c1CO.[Br-]"
7 mm

State its zone of inhibition at 200 µg/disc on Pseudomonas aeruginosa: "Cn1c[n+](CC(=O)c2ccccc2)c(I)c1I.[Br-]"
8 mm
